experiment: chemical genetic growth profiling, strain panel (AID 1159580);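 further: tested at 20 µM; growth read once vehicle control cultures reached saturation at 30 °C; 1 = growth at the plate median or of vehicle wells; lower values mean less growth of the strain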; settings: S. cerevisiae deletion strains, growth OD, locus YDR101C, strain arx1, hits give low values
The whole screen tested about 5,500 compounds, of which about 2,000 (36%) were called active. About 18% were inconclusive and are not listed. The list shows a part of the results.
Listed here are compounds together with their documented normalized growth.
Lab note: write the figure by itself, no unit.

See these solved cases before continuing.
{"Compound": "CC1(C)S[C@@H]2[C@H](NC(=O)C(C(=O)O)c3ccccc3)C(=O)N2[C@H]1C(=O)O (stereo partly specified)", "Readout type": "normalized growth", "Endpoint value": 0.994}
{"Compound": "NCCCCN", "Readout type": "normalized growth", "Endpoint value": 0.971}
{"Compound": "CC1=CC(=O)C(C(C)C)=CC1=O", "Readout type": "normalized growth", "Endpoint value": 0.87}
{"Compound": "CC[C@H]1CN2CCC1C[C@@H]2[C@@H](O)c1ccnc2ccc(OC)cc12 (stereo partly specified)", "Readout type": "normalized growth", "Endpoint value": 1}
{"Compound": "CN(C)CC[C@H](c1ccc(Cl)cc1)c1ccccn1", "Readout type": "normalized growth", "Endpoint value": 0.998}
{"Compound": "O=C(O)CN(CCN(CC(=O)O)CC(=O)O)CC(=O)O", "Readout type": "normalized growth", "Endpoint value": 0.989}
{"Compound": "C/C=C(\\C)C(=O)O[C@@H]1c2c(ccc3ccc(=O)oc23)OC(C)(C)[C@@H]1OC(C)=O", "Readout type": "normalized growth", "Endpoint value": 1.03}
{"Compound": "O=C(O)c1cc(O)ccc1O", "Readout type": "normalized growth", "Endpoint value": 0.965}

Lookup: Need normalized growth of CC1(C)C(O)CC(=O)C2(C)C1CC(O)C1(C)C2CCC2(C)C(c3ccoc3)OC(=O)C3OC321 (stereo unspecified) , thanks.
Found: 1

Lookup: May I ask what normalized growth has been recorded for CC1=CC(=O)C2C(C)(C)CCC[C@]2(C)[C@@]1(O)CCc1ccoc1 (stereo partly specified) ?
Found: 1.01

Lookup: Would you mind telling me what normalized growth value was observed for COc1ccc(-c2cc(=O)c3c(O)c(OC)c(O[C@H]4O[C@H](CO[C@@H]5O[C@@H](C)[C@H](O)[C@@H](O)[C@H]5O)[C@@H](O)[C@H](O)[C@H]4O)cc3o2)cc1 ?
Found: 1.02

Lookup: Returns the measured normalized growth for the input compound. Input: CC(=O)O[C@@H]1c2c(ccc3ccc(=O)oc23)OC(C)(C)[C@@H]1OC(=O)CC(C)C
Found: 1.05

---

assay: chemical genetic growth profiling, strain panel (AID 1159580); details: S. cerevisiae deletion strains, growth OD, locus YNL322C, strain KRE1, hits give low values
In all, about 5,500 compounds went through this assay and about 2,000 (36%) were called active. About 18% were inconclusive and are not listed. The list shows a part of the results.
Listed here: items and their measured normalized growth.

Answered cases to consult:
{"Molecule": "CCCCCCCCCCCCSc1nnc(N)s1", "normalized growth": "0.983 (inactive)"}
{"Molecule": "CC(C)(C)c1ccc(Oc2ncccc2NC(=O)c2ccccc2C(F)(F)F)cc1", "normalized growth": "1 (inactive)"}
{"Molecule": "C[C@@H]1O[C@@H](O[C@H]2CC[C@]3(C=O)C4CC[C@]5(C)[C@@H](C6=CC(=O)OC6)CC[C@]5(O)C4CC[C@]3(O)C2)[C@H](O)[C@H](O)[C@H]1O (stereo not given in full)", "normalized growth": "0.994 (inactive)"}
{"Molecule": "C[C@]12CCC3C(CC[C@]4(O)C[C@@H](O)CC[C@]34C=O)[C@@]1(O)CCC2C1=CC(=O)OC1 (stereo not given in full)", "normalized growth": "0.99 (inactive)"}

Here is another molecule to look at.
Lookup: Quick one: normalized growth of CNC(=S)N/N=C\c1cc(Br)cc(Br)c1O ?
Found: 0.817 (active)

---

// reported normalized growth per item
test: chemical genetic growth profiling, strain panel (AID 1159580); conditions: S. cerevisiae deletion strains, growth OD, locus YNL250W, strain rad50, hits give low values
The campaign covered roughly 5,500 compounds. About 2,000 (36%) were called active. Inconclusive results (about 18%) are left out. Some of the results follow.

Here's what some known entries look like.
{"Compound": "CC(=O)O[C@@H]1CC2C(C)(CC[C@H](O)C2(C)C)C2CC[C@]3(C)C(=CC(=O)O[C@H]3c3ccoc3)C21C (stereo partly drawn)", "normalized growth": "0.989 (inactive)"}
{"Compound": "COc1nc(NC(C)C)nc(NC(C)C)n1", "normalized growth": "1.01 (inactive)"}
{"Compound": "CC(C)Nc1nc(Cl)nc(NC(C)C)n1", "normalized growth": "1.01 (inactive)"}
{"Compound": "NC[C@@H]1O[C@H](O[C@@H]2[C@@H](CO)OC(O[C@@H]3[C@@H](O)[C@H](N)C[C@H](N)[C@H]3O[C@H]3O[C@H](CO)[C@@H](O)[C@H](O)[C@H]3N)[C@@H]2O)[C@H](N)[C@@H](O)[C@@H]1O (stereo partly drawn)", "normalized growth": "0.991 (inactive)"}
{"Compound": "COc1cc(O)c2c(=O)cc(-c3ccc(O)cc3)oc2c1", "normalized growth": "1.02 (inactive)"}
{"Compound": "CSc1nc(NC(C)C)nc(NC(C)C)n1", "normalized growth": "1.01 (inactive)"}

Lookup: Please look up its normalized growth: Nc1nc(/C(=C/CC(=O)O)C(=O)N[C@@H]2C(=O)N3C(C(=O)O)=CCS[C@H]23)cs1
Found: 0.987 (inactive)

Lookup: Dear colleague, I am looking for the recorded normalized growth of the following compound: N#Cc1c(Cl)cccc1Cl
Found: 1.02 (inactive)

---

experiment: chemical genetic growth profiling, strain panel (AID 1159580);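 further: tested at 20 µM; growth read once vehicle control cultures reached saturation at 30 °C; 1 = growth at the plate median or of vehicle wells; lower values mean less growth of the strain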; details: S. cerevisiae deletion strains, growth OD, locus YER110C
About 2,000 (36%) of roughly 5,500 compounds were called active. Roughly 18% stayed inconclusive and do not appear here. Rule as the data show it: active = normalized growth mostly below about 0.91 (no sharp cut-off); inconclusive = no clear call, values can overlap the other calls; inactive = mostly above about 0.92. The list shows a part of the results.
Response enum: Yes (active), No (inactive)

Sample answers from the record:
{"Compound": "CN(C)CC[C@H](c1ccc(Cl)cc1)c1ccccn1", "Assigned category": "No"}
{"Compound": "NCCCCN", "Assigned category": "No"}
{"Compound": "CC(=O)O[C@@H]1CC2C(C)(CC[C@H](O)C2(C)C)C2CC[C@]3(C)C(=CC(=O)O[C@H]3c3ccoc3)C21C (stereo not given in full)", "Assigned category": "No"}
{"Compound": "C[C@@H]1CC[C@@]23CCC4(C)[C@@](C=CC5[C@@]6(C)CC[C@H](O)C(C)(C)C6CC[C@]54C)(OC2=O)C3[C@H]1C (stereo not given in full)", "Assigned category": "No"}

Please find the next compound below.
Lookup: Call for entry CC(=O)N1CCN(c2ccc(OCC3CO[C@](Cn4ccnc4)(c4ccc(Cl)cc4Cl)O3)cc2)CC1 (stereo not given in full) :
Found: Yes

---

test: chemical genetic growth profiling, strain panel (AID 1159580);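 further: tested at 20 µM; growth read once vehicle control cultures reached saturation at 30 °C; 1 = growth at the plate median or of vehicle wells; lower values mean less growth of the strain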; details: S. cerevisiae deletion strains, growth OD, locus YLR418C, strain cdc73, hits give low values
The campaign covered roughly 5,500 compounds. About 2,000 (36%) were called active. Inconclusive results (about 18%) are left out. The list shows a part of the results.
Readout type: normalized growth
Form rule: numeric answer, no unit written next to it.

Below, 5 compounds whose answers are already recorded.
{"Compound": "CN(C)CC[C@H](c1ccc(Cl)cc1)c1ccccn1", "Endpoint value": 0.994}
{"Compound": "C[C@]12CC[C@H](O)C[C@H]1CCC1C2CC[C@]2(C)[C@@H](C3=CC(=O)OC3)[C@@H](O)C[C@]12O (some centres undefined)", "Endpoint value": 1.01}
{"Compound": "CC1(C)C(O)CC(=O)C2(C)C1CC(O)C1(C)C2CCC2(C)C(c3ccoc3)OC(=O)C3OC321 (centres undefined)", "Endpoint value": 1}
{"Compound": "O=C(CCCN1CCC2(CC1)C(=O)NCN2c1ccccc1)c1ccc(F)cc1", "Endpoint value": 0.976}
{"Compound": "CCC(=O)OCC(=O)C1(OC(=O)CC)C(C)CC2C3CCC4=CC(=O)C=CC4(C)C3(Cl)C(O)CC21C (centres undefined)", "Endpoint value": 0.984}

Lookup: Which normalized growth value belongs to Cc1c(C(N)=O)cc([N+](=O)[O-])cc1[N+](=O)[O-] ?
Found: 0.972

---

assay: chemical genetic growth profiling, strain panel (AID 1159580);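 further: tested at 20 µM; growth read once vehicle control cultures reached saturation at 30 °C; 1 = growth at the plate median or of vehicle wells; lower values mean less growth of the strain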; settings: S. cerevisiae deletion strains, growth OD, locus YCR088W, strain abp1, hits give low values
Screen size: about 5,500 compounds; about 2,000 (36%) were called active. About 18% were inconclusive and are not listed. Some of the results follow.
Could you please mark yes for values of normalized growth below 1 and no for values at or above it?

{"Smiles data": "O=c1c(O)cc([C@H]2Oc3cc(O)cc(O)c3C[C@H]2O)cc2c([C@H]3Oc4cc(O)cc(O)c4C[C@H]3O)cc(O)c(O)c12", "Assigned category": "no"}

Lookup: Decide: normalized growth of O=C(CCCN1CCC(O)(c2ccc(Cl)cc2)CC1)c1ccc(F)cc1 strictly below 1?
Found: no

Lookup: Please indicate whether the reported normalized growth of OC1(c2ccc(Cl)c(C(F)(F)F)c2)CCN(CCCC(c2ccc(F)cc2)c2ccc(F)cc2)CC1 is strictly below 1.
Found: yes
